- target: F508delCFTR (Homo sapiens, UniProt P13569, DEL508-508)
- Construct: expressed in transfected cells; host or cells: CFBE41o- human lung-derived epithelial cells (CFBE4lo-F508delCFTR-HRP), doxycycline-inducible
- Sequence (P13569 with tags, fused parts or gaps DEL508-508): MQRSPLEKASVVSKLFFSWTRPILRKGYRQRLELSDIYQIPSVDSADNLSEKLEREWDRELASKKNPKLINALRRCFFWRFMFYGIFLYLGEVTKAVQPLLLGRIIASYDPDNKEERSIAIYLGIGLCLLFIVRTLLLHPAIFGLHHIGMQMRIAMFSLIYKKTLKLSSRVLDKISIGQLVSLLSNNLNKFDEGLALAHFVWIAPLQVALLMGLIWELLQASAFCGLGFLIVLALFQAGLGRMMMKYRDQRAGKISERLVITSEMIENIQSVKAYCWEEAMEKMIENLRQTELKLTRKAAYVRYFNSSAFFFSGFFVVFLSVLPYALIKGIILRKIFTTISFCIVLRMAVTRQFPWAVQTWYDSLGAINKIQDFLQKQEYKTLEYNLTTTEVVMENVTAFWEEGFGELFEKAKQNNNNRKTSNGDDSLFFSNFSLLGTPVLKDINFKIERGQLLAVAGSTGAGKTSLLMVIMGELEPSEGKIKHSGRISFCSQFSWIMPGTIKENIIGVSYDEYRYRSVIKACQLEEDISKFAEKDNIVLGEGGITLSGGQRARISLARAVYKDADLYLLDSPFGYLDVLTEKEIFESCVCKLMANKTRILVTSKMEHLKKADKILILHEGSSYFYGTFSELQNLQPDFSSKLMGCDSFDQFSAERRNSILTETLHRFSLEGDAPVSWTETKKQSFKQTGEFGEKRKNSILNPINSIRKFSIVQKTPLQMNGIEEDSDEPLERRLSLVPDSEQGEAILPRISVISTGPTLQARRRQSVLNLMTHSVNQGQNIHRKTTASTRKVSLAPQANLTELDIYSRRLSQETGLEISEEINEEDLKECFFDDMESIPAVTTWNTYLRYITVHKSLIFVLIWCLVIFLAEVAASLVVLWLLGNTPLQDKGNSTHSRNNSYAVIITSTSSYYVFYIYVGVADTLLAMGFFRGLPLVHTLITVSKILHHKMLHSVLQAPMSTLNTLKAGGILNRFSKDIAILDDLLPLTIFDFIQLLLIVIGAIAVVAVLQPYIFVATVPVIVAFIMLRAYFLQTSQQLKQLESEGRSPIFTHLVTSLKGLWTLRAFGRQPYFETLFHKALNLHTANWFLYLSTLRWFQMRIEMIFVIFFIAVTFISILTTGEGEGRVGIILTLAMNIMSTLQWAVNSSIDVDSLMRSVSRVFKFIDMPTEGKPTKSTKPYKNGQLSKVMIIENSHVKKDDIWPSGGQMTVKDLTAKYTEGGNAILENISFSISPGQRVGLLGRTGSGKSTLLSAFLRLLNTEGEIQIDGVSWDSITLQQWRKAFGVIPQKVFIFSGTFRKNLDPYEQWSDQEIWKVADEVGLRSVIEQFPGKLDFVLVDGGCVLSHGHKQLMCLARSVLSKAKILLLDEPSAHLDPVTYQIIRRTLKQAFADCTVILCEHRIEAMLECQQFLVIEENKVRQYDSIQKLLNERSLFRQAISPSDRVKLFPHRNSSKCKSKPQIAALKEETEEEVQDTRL
- testName: Cell Surface Expression-Horse Radish Peroxidase (CSE-HRP) Assay
- Assay type: cell-based
- testSettings: with co-corrector (2 μM of 3-[(2R,4R)-4-({[1-(2,2-difluoro-1,3-benzodioxol-5-yl)cyclopropyl]carbonyl}amino)-7-methoxy-3,4-dihydro-2H-chromen-2-yl]benzoic acid); read-out: EC50 (with co-corrector)
pEC50: −log10 of the molar value.
This section presents compounds with their documented pEC50 values.

Use the examples below as a reference point.
>>> print(df.to_string())
                                   compound     measvalue
0  COc1ccc(C23CC(C2)C3)cc1CN[C@H]1[C@H](C(C)(C)C)[C@@H](C(=O)O)N(C(=O)C2CCCCC2)[C@H]1c1cccnc1OC(F)F  5.00 to 6.00
1  COc1ccc(C(C)(C)C)cc1CN[C@H]1[C@H](C(C)(C)C)[C@@H](C(=O)O)N(C(=O)C(C)Oc2cccc(Cl)c2)[C@H]1c1ccccc1 (stereo partly drawn)        > 6.00
2  COCCOc1cnc(Cl)cc1CN[C@@H]1[C@@H](C(C)(C)C)[C@H](C(=O)O)N(C(=O)C2CCCCC2)[C@@H]1c1ccccc1 (racemic)  5.00 to 6.00
3  COc1ncc(C2CCC2)cc1CN[C@H]1[C@H](C(C)(C)C)[C@@H](C(=O)O)N(C(=O)[C@@H]2CCCO2)[C@H]1c1ccccc1Cl  5.00 to 6.00

Lookup: Give measured pEC50 for COc1cccc([C@H]2[C@@H](NCc3cc(C(F)(F)F)ccc3OC)[C@H](C(C)(C)C)[C@@H](C(=O)O)N2C(=O)C2(C)CCCOC2)n1 (relative stereo) (F508delCFTR (Homo sapiens, UniProt P13569, DEL508-508)).
Found: 5.00 to 6.00

Lookup: Give measured pEC50 for COc1ccc(C23CC(C2)C3)cc1CN[C@H]1[C@H](C(C)(C)C)[C@@H](C(=O)O)N(C(=O)C2CCCCC2)[C@H]1c1ccccc1 (F508delCFTR (Homo sapiens, UniProt P13569, DEL508-508)).
Found: > 6.00

###

This section presents compounds with their documented EC50 values.
- target: F508delCFTR (Homo sapiens, UniProt P13569, DEL508-508)
- Construct: expressed in transfected cells; host or cells: CFBE41o- human lung-derived epithelial cells (CFBE4lo-F508delCFTR-HRP), doxycycline-inducible
- testName: Cell Surface Expression-Horse Radish Peroxidase (CSE-HRP) Assay
- Format: cell-based
- testSettings: test compound without co-corrector; read-out: EC50 (without co-corrector)

Lookup: Give measured EC50 for COc1cccc([C@H]2[C@@H](Nc3cccc(OC(F)F)n3)[C@H](C(C)(C)C)[C@@H](C(=O)O)N2C(=O)C2(C)CCCOC2)n1 (mixture of isomers) [III-76] (F508delCFTR (Homo sapiens, UniProt P13569, DEL508-508)).
Found: > 10000 nM

Lookup: Give measured EC50 for COc1ccc(C(C)(C)C)cc1CN[C@H]1[C@H](C(C)(C)C)[C@@H](C(=O)O)N(C(=O)C(C)Oc2cccc(C)c2C)[C@H]1c1ccccc1 (stereo partly drawn) [II-323] (F508delCFTR (Homo sapiens, UniProt P13569, DEL508-508)).
Found: 1000 to 10000 nM

###

- target: F508delCFTR (Homo sapiens, UniProt P13569, DEL508-508)
- Construct: expressed in transfected cells; host or cells: CFBE41o- human lung-derived epithelial cells (CFBE4lo-F508delCFTR-HRP), doxycycline-inducible
- testName: Cell Surface Expression-Horse Radish Peroxidase (CSE-HRP) Assay;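 on Maximum % activity (without co-corrector): percent of the 2 µM on-plate positive control corrector response above DMSO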
- Assay type: cell-based
- testSettings: test compound without co-corrector; maximum at any tested concentration, normalized to on-plate positive control; read-out: Maximum % activity (without co-corrector)
This section presents compounds with their documented Emax values.

>>> print(df.to_string())
                                   compound                                    target  endpoint  measvalue
0  COc1cc(C(F)(F)F)ccc1CN[C@@H]1[C@@H](C(C)(C)C)[C@H](C(=O)O)N(C(=O)[C@H]2CCCCO2)[C@@H]1c1ccccc1  F508delCFTR (Homo sapiens, UniProt P13569, DEL508-508)      Emax     < 100%

Turning to the following compound.
Lookup: Please report Emax for the following compound: COc1ccc(C(C)(C)C)cc1CN[C@H]1[C@H](C(C)(C)C)[C@@H](C(=O)O)N(C(=O)C2CCCCC2C(F)(F)F)[C@H]1c1ccccc1 (stereo partly drawn)
Found: > 200%

###

- target: F508delCFTR (Homo sapiens, UniProt P13569, DEL508-508)
- Construct: expressed in transfected cells; host or cells: CFBE41o- human lung-derived epithelial cells (CFBE4lo-F508delCFTR-HRP), doxycycline-inducible
- testName: Cell Surface Expression-Horse Radish Peroxidase (CSE-HRP) Assay;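 on Maximum % activity (without co-corrector): percent of the 2 µM on-plate positive control corrector response above DMSO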
- Format: cell-based
- testSettings: test compound without co-corrector; maximum at any tested concentration, normalized to on-plate positive control; read-out: Maximum % activity (without co-corrector)
endpoint: Emax

Use the examples below as a reference point.
molecule	measValue
COc1ccc(C(C)(C)C)cc1CN[C@H]1[C@H](C(C)(C)C)[C@@H](C(=O)O)N(C(=O)c2ccc(OC(F)(F)F)cc2)[C@H]1c1cccnc1N(C)C	100 to 200%
COc1ccc(SC(F)(F)F)cc1CN[C@H]1[C@H](C(C)(C)C)[C@@H](C(=O)O)N(C(=O)OC(C)C)[C@H]1c1cccnc1N(C)C	> 200%
COc1ccc(-c2cnn(C3CC3)c2)cc1CN[C@H]1[C@H](C(C)(C)C)[C@@H](C(=O)O)N(C(=O)C2CCCCC2)[C@H]1c1ccccc1	< 100%

Lookup: Please report Emax for the following molecule: CC(C)OC(=O)N1[C@H](c2ccccc2)[C@H](Nc2cc(C(F)(F)F)ccn2)[C@@H](C(C)(C)C)[C@@H]1C(=O)O (racemic)
Found: < 100%

Lookup: Please report Emax for the following molecule: COc1ncc(-c2ccccc2F)cc1CN[C@H]1[C@H](C(C)(C)C)[C@@H](C(=O)O)N(C(=O)C2CCCCC2)[C@H]1c1cccnc1N(C)C
Found: > 200%

Lookup: Please report Emax for the following molecule: CCC(CC)Cc1ccc(OC)c(CN[C@H]2[C@H](C(C)(C)C)[C@@H](C(=O)O)N(C(=O)C3CCCCC3)[C@H]2c2ccccc2)c1
Found: > 200%

Lookup: Please report Emax for the following molecule: COc1ccc(C2(C)CCC2)cc1CN[C@H]1[C@H](C(C)(C)C)[C@@H](C(=O)O)N(C(=O)[C@H]2CCCCO2)[C@H]1c1cccnc1N(C)C
Found: > 200%

Lookup: Please report Emax for the following molecule: COc1ccc(C(C)(C)C)cc1CN[C@H]1[C@H](C(C)(C)C)[C@@H](C(=O)O)N(C(=O)C2Cc3ccccc3CO2)[C@H]1c1cccnc1N(C)C (single isomer, unassigned)
Found: < 100%

Lookup: Please report Emax for the following molecule: COc1ccc(C(C)(C)C)cc1CN[C@H]1[C@H](C(C)(C)C)[C@@H](C(=O)O)N(C(=O)C2COc3c(cccc3OC)C2)[C@H]1c1ccccc1 (stereo partly drawn)
Found: > 200%

###

- target: F508delCFTR (Homo sapiens, UniProt P13569, DEL508-508)
- Construct: expressed in transfected cells; host or cells: CFBE41o- human lung-derived epithelial cells (CFBE4lo-F508delCFTR-HRP), doxycycline-inducible
- testName: Cell Surface Expression-Horse Radish Peroxidase (CSE-HRP) Assay
- Type: cell-based
- testSettings: with co-corrector (2 μM of 3-[(2R,4R)-4-({[1-(2,2-difluoro-1,3-benzodioxol-5-yl)cyclopropyl]carbonyl}amino)-7-methoxy-3,4-dihydro-2H-chromen-2-yl]benzoic acid); read-out: EC50 (with co-corrector)
- Experimental: Cell Surface Expression-Horse Radish Peroxidase (CSE-HRP) Assay The development was achieved by expressing the F508delCFTR mutation along with a horseradish peroxidase (HRP) in the fourth exofacial loop, and then measuring the HRP activity using luminescence readout from these cells, CFBE4lo-F508delCFTR-HRP, that were incubated overnight with the test corrector compounds, either without or with the co-corrector. […] The raw counts from the experiment were analyzed using Accelrys® Assay Explorer v3.3. […]
This section presents compounds with their documented EC50 values.

                                   compound                                    target         measvalue
0  COc1ccc(C(F)(F)F)cc1CN[C@@H]1[C@@H](C(C)(C)OC)[C@H](C(=O)O)N(C(=O)C2CCCCC2)[C@@H]1c1ccccc1 (racemic)  F508delCFTR (Homo sapiens, UniProt P13569, DEL508-508)  1000 to 10000 nM
1  CCCCCOC(=O)N1[C@H](C(=O)O)[C@@H](C(C)(C)C)[C@H](NCc2cc(C(C)(C)C)ccc2OC)[C@@H]1c1ccccc1  F508delCFTR (Homo sapiens, UniProt P13569, DEL508-508)         < 1000 nM

Turning to the following compound.
Lookup: Please report EC50 for the following compound: COc1ccc(C(C)(C)C)cc1CN[C@H]1[C@H](C(C)(C)C)[C@@H](C(=O)O)N(C(=O)C(C)Oc2ccccc2F)[C@H]1c1ccccc1 (stereo partly drawn)
Found: < 1000 nM

Source: patent US20180099931A1
